# details: buffer; pH 7.4; 200.0 µM
value.kind: solubility kinetic (mg/mL)
Response body: numeric value in mg/mL, unit text excluded.

Past entries and their recorded results:
Clc1cccc(Cl)c1-c1noc(-c2ccno2)n1; 0.0286
Cc1c(C)n(CCc2c[nH]c3ccccc23)ccc1=O; 0.0385
O=C(CCC(=O)c1cccs1)NCc1ccccc1Cl; 0.0454
COc1ccc(NS(=O)(=O)c2cc(NC(=O)c3ccc(S(=O)(=O)N(C)C)cc3)ccc2N2CCOCC2)cc1; 0.0032
O=C(c1ccccn1)c1ccc2ccccc2n1; 0.0288

Quick one: give measured solubility kinetic for O=C(c1ccc(Cl)c(Cl)c1)N1CCN(c2ccccn2)CC1 0.0404

Answer with the recorded solubility kinetic for the compound listed here: N#CC(C#N)=Cc1cccnc1 0.0195

Identify solubility kinetic associated with the compound CC(C)[C@H](NC(N)=O)C(=O)NCCc1ccc(Cl)cc1Cl 0.0482

Provide solubility kinetic value for the following compound: CC(C)(C)Nc1c(-c2cccs2)nc2ccccn12 0.0334
